- System: KM12 colon
- assayExplanation: NCI-60 one-dose screen, 48 h
- conditionSummary: 10 µM unless noted
This is part of a sample that, as a whole, favours compounds with a hit. Of some 83,000 tested, about 20% had one in any assay. Calls of active or inactive are those of the source. The calls were made as follows: active = growth percent below 10; inactive = the rest.
Outcomes: Y for active, N for inactive

INSERT INTO results (structurenotation, class) VALUES
  ('Cn1c(=O)c2[nH]c(SCC(=O)Nc3ccc(C(=O)/C=C/c4ccccc4Cl)cc3)nc2n(C)c1=O', 'N'),
  ('COc1cc(NC(=O)c2cncnc2Nc2ccc3c(ccn3Cc3ccccn3)c2)cc(OC)c1', 'N'),
  ('CNC(=O)c1cc(Oc2cccc3nc(NC(=O)Nc4cc(C(F)(F)F)ccc4Cl)ccc23)ccn1', 'N'),
  ('O=C(Nc1cc(Cl)ccc1O)c1cccc(Nc2ccnc(C(F)(F)F)c2)c1', 'N'),
  ('O=C1c2ccccc2C(=O)c2c1cc1c(c2[N+](=O)[O-])OCO1', 'Y');

Source listed as PubChem BioAssay (NCI).
